- Test system: COLO 205 colon
- ASSAY EXPLANATION: NCI tumour cell line growth inhibition, 48 h
ATTRIBUTE MEASURED: TGI

>>> assay_result("O=C(Cc1nc2ccc(C(=O)c3ccccc3)cc2[nH]c1=O)C(=O)Nc1ccc(C(F)(F)F)cc1[N+](=O)[O-]")
"> 100 µM"
>>> assay_result("CNC(=O)C1CCC(=O)N1CN(C(C)=O)c1ccccc1 (centres undefined)")
"> 100 µM"
>>> assay_result("CC(=O)N1N=C(c2ccccc2Nc2ccccc2C2=NN(C(C)=O)C(c3ccccc3)O2)OC1c1ccccc1 (centres undefined)")
"> 100 µM"
>>> assay_result("CN(CCNC(=O)c1cn(C)c2c1ccc1cc(Cl)ccc12)CCNC(=O)c1cn(C)c2c1ccc1cc(Cl)ccc12")
"2.57 µM"

====

- Test system: UO-31 renal
- ASSAY EXPLANATION: NCI tumour cell line growth inhibition, 48 h
# key: entry, value: TGI
ATTRIBUTE MEASURED: TGI

>>> assay_result("NC(CCC(=O)NC(CSC(=O)N(O)c1ccc(Cl)cc1)C(=O)NCC(=O)O)C(=O)O (centres undefined)")
"> 0.5 µM"
>>> assay_result("Cc1ccc(S(=O)(=O)Nn2c(C)cc3ccc(S(=O)(=O)Nc4ccccc4[N+](=O)[O-])cc3c2=O)cc1")
"> 100 µM"
>>> assay_result("C[C@]12CC[C@H]3[C@@H](CC=C4C[C@@H](O)CC[C@@]43C)[C@@H]1C[C@H](N1CCOCC1)[C@@H]2O")
"> 100 µM"
>>> assay_result("[O-]/N=N\\c1on[n+](CCc2ccccc2)c1Cc1c(/N=N/[O-])on[n+]1CCc1ccccc1")
"> 100 µM"
>>> assay_result("COc1ccc(/C=c2\\sc3nnc(CCC(=O)Nc4cccc(C(F)(F)F)c4)n3c2=O)cc1")
"> 100 µM"
>>> assay_result("CC(C)(C)OC(=O)N(CCCCNC(=O)c1ccccc1)CCCNC(=O)c1ccccc1")
"> 100 µM"
>>> assay_result("COc1cc2c(cc1OCc1ccccc1)N=C[C@@H]1C[C@@H](F)CN1C2=O")
"0.483 µM"
>>> assay_result("Cc1cc(C(=O)N2CCN(C)CC2)c2c(=O)n(-c3ccccc3)c(=O)n(CC(O)CN3CCN(c4ncccn4)CC3)c2n1 (centres undefined)")
"> 100 µM"
>>> assay_result("Nc1cccc2c1CN(C1CCC(=O)NC1=O)C2=O (centres undefined)")
"> 100 µM"

====

- Tested on: MOLT-4 leukemia
- ASSAY EXPLANATION: NCI tumour cell line growth inhibition, 48 h
ATTRIBUTE MEASURED: TGI

>>> assay_result("CCn1c(SCC(=O)NNC(=S)Nc2ccc(Cl)cc2)nc2ccccc2c1=O")
"> 100 µM"
>>> assay_result("Cc1ccc(O)c(-c2cc(-c3ccccc3)nc(/N=C\\c3ccccc3)n2)c1")
"> 100 µM"
>>> assay_result("CCN1CCN(CC(=O)Nc2nc3ccc(NCc4ccc(C)cc4)cc3s2)CC1")
"5.99 µM"
>>> assay_result("Cc1cc(N2CCN(C)CC2)nc(N(CCNc2ccnc3cc(Cl)ccc23)Cc2ccco2)n1")
"10.9 µM"
>>> assay_result("Nc1nc2c(c(=O)[nH]1)N=C(COP(=O)(O)OP(=O)(O)O)CN2")
"> 100 µM"
>>> assay_result("COc1ccc(Oc2nc(Nc3ccc(N4CCOCC4)cc3)ncc2NC(=O)Nc2cc(OC)cc(OC)c2)cc1")
"> 33.3 µM"
>>> assay_result("O=C1NC(=O)C(N2CCc3ccccc32)=C1c1ccc(Cl)cc1")
"> 25 µM"
>>> assay_result("Cc1ccc(-n2nnc3c(sc4ccccc43)c2=O)cc1")
"> 100 µM"
>>> assay_result("S=C(Nc1ccc(Cl)cc1)SC1CCCCC1")
"92.4 µM"
>>> assay_result("NC(CCC(=O)NC(CSC(=O)N(O)c1ccc(Cl)cc1)C(=O)NCC(=O)O)C(=O)O (stereo not drawn)")
"> 0.5 µM"
>>> assay_result("CNC(=O)C1CCC(=O)N1CN(C(C)=O)c1ccccc1 (stereo not drawn)")
"> 100 µM"
>>> assay_result("O=c1[nH]cc(CO)c(=O)[nH]1")
"> 100 µM"
>>> assay_result("O=C1c2ccccc2-c2c1c1c(O)cccc1n2CCCc1ccccc1")
"> 100 µM"
>>> assay_result("COC(=O)C(=O)c1cc2ccccc2n1S(=O)(=O)c1ccccc1")
"> 100 µM"
>>> assay_result("N=c1oc2ccc([N+](=O)[O-])cc2cc1C(=O)Nc1ccccn1")
"> 100 µM"
>>> assay_result("C/C(=C\\CCc1ccsc1)CC/C=C(\\C)CCCN1CCN(CCO)CC1")
"6.29 µM"
>>> assay_result("C=CC(Br)(CBr)CCC(Br)C(C)(C)Br (stereo not drawn)")
"35.8 µM"
>>> assay_result("CN(C)C=NCc1ccc2c(c1)OCO2")
"> 100 µM"
>>> assay_result("CN(C(=O)C12C3C4C1C1C2C3C41C(=O)N(C)C(C)(C)C)C(C)(C)C (stereo not drawn)")
"> 50 µM"
>>> assay_result("COc1ccccc1N(C(C)=O)C1=C(Cl)C(=O)c2ccccc2C1=O")
"> 25.1 µM"
>>> assay_result("Cc1ccccc1C(=O)NC(O)(C(F)(F)F)C(F)(F)F")
"> 100 µM"
>>> assay_result("N=C1/C(=C/c2ccccc2)C(=O)N=C2SC=NN12")
"> 100 µM"
>>> assay_result("Cc1ccc(-c2c3c(N)nc(-c4ccncc4)nc3nc3c2c(C)nn3-c2ccccc2)cc1")
"> 37.5 µM"

====

- System: HCT-15 colon
- ASSAY EXPLANATION: NCI tumour cell line growth inhibition, 48 h
Reported GI50 is given for each of the following compounds.
ATTRIBUTE MEASURED: GI50

>>> assay_result("CC(N)CN.CC(N)CN.[Cl-].[O]=[Os+2]=[O] (stereo not drawn)")
"> 100 µM"
>>> assay_result("CCOC(=O)c1c(C(F)(F)F)n([O-])c2ccc(Cl)cc2[n+]1=O")
"1.52 µM"
>>> assay_result("C=C1C(=O)O[C@H]2[C@H]1CC/C(COC(=O)c1cccc3ccccc13)=C\\CC[C@@]1(C)O[C@@H]21")
"1.19 µM"
>>> assay_result("Nc1cccc2c1CN(C1CCC(=O)NC1=O)C2=O (stereo not drawn)")
"> 100 µM"
>>> assay_result("O=C1c2ccccc2-c2c1c1c(O)cccc1n2CCCc1ccccc1")
"4.11 µM"
>>> assay_result("N#Cc1ccc(N2Cc3cc(Cl)ccc3OC3=C2C(=O)N(Cc2ccc(F)cc2)C3=O)cc1")
"0.543 µM"
>>> assay_result("C/C(=C\\CCc1ccsc1)CC/C=C(\\C)CCCN1CCN(CCO)CC1")
"2.42 µM"
>>> assay_result("CCOP(=O)(CCN1CCN(CCCCCOc2cc3c(cc2OC)C(=O)N2CCC[C@H]2C=N3)CC1)OCC")
"80 µM"
>>> assay_result("Cc1ccc2c(n1)C(=O)C(Cl)=C(Nc1ccc(N3CCN(C)CC3)cc1)C2=O")
"1.84 µM"
>>> assay_result("Cc1cn(C2CC(N=[N+]=[N-])C(CO)O2)c(=O)[nH]c1=O (stereo not drawn)")
"> 1000 µM"
>>> assay_result("O=[N+]([O-])c1ccc(Oc2cccc(C(F)(F)F)c2)c([N+](=O)[O-])c1")
"2.41 µM"
>>> assay_result("C[C@@H](Oc1cc(-c2cnn(C3CC4(CNC4)C3)c2)cnc1N)c1c(Cl)ccc(F)c1Cl")
"4.04 µM"
>>> assay_result("O=[N+]([O-])c1ccc(N/N=C/c2ccccc2O)nc1")
"0.639 µM"

====

Here's what we have: GI50 numbers for MDA-MB-435.
*1 amine or outer side, *2 acyl side, *3 side chain or, on linkers, in order; H or OH if unused. Where a SMILES comes first, the peptide text is derived from it. Bridges are numbered along the chain shown (N, C = ends). Roman numbers before positions name the chains, in order. X23 = CCCCCCCCCCCCCCC(=O)NC(CCCCN[*:2])C(=O)CN1CCCC1C(=O)[*:1]
ATTRIBUTE MEASURED: GI50

>>> assay_result("Cc1cc(Br)c2nsnc2c1[N+](=O)[O-]")
"2.86 µM"
>>> assay_result("CCCCCCCCCCCCCCC(=O)NC(CCCCNC(=O)C1CCCN1C(=O)C(CCCCN)NC(=O)C(CCCCN)NC(=O)C(CCCCN)NC(=O)C(CCCNC(=N)N)NC(=O)C(CCCCN)NC(=O)C(N)C(C)C)C(=O)CN1CCCC1C(=O)NCC(=O)NC(Cc1ccccc1)C(=O)N1CCCC1C(=O)NC(CO)C(=O)NC(Cc1ccc(O)cc1)C(=O)NC(CCCCN)C(=O)NC(CC(C)C)C(=O)NC(CCCNC(=N)N)C(=O)N1CCCC1C(=O)NCC(N)=O (stereo unspecified) (I: GFPSYKLRPG-NH2 / II: H-VKRKKKP; linker I:N-II:C via X23; configuration not given here)")
"3.15 µM"
>>> assay_result("CCN1CCN(CC(=O)Nc2nc3ccc(NCc4ccc(C)cc4)cc3s2)CC1")
"1.05 µM"
>>> assay_result("O=Cc1c[nH]c2ccc(-c3csc4ccccc34)cc12")
"1.24 µM"
>>> assay_result("CCOP(=O)(CCN1CCN(CCCCCOc2cc3c(cc2OC)C(=O)N2CCC[C@H]2C=N3)CC1)OCC")
"3.36 µM"
>>> assay_result("CCOC(=O)c1c(C(F)(F)F)n([O-])c2ccc(Cl)cc2[n+]1=O")
"1.68 µM"
>>> assay_result("N#Cc1ccc(N2Cc3cc(Cl)ccc3OC3=C2C(=O)N(Cc2ccc(F)cc2)C3=O)cc1")
"0.607 µM"
>>> assay_result("COc1ccc(Oc2nc(Nc3ccc(N4CCOCC4)cc3)ncc2NC(=O)Nc2cc(OC)cc(OC)c2)cc1")
"2.33 µM"
>>> assay_result("[CH3][Sn]([CH3])([CH3])[O]C(=O)C(O)c1ccccc1 (stereo unspecified)")
"3.52 µM"
>>> assay_result("Cc1ccc(C2NC(=S)N3C(c4ccc(C)cc4)NC(=S)N23)cc1 (stereo unspecified)")
"0.666 µM"
>>> assay_result("Cc1cc(N2CCN(C)CC2)nc(N(CCNc2ccnc3cc(Cl)ccc23)Cc2ccco2)n1")
"1.62 µM"
>>> assay_result("COc1ccccc1N(C(C)=O)C1=C(Cl)C(=O)c2ccccc2C1=O")
"1.9 µM"
>>> assay_result("Oc1[nH]c2ccc(Cl)cc2c1/C=c1/ccc2c(c1)N=C(c1ccc(C(F)(F)F)cc1)N=2")
"1.9 µM"
>>> assay_result("COc1cc(-c2nccc3[nH]c(-c4cccc5[nH]ccc45)nc23)cc(OC)c1OC")
"< 0.01 µM"
>>> assay_result("O=C1c2cccc3cccc(c23)C(=O)N1CC#Cc1ccc2c3c(cccc13)C(=O)N(CCN1CCNCC1)C2=O")
"1.86 µM"
>>> assay_result("O=[N+]([O-])c1ccc(Oc2cccc(C(F)(F)F)c2)c([N+](=O)[O-])c1")
"1.67 µM"
